- Test system: Mus musculus
- Assay details: Hypoglycemic activity in C57BL/6 mouse assessed as reduction in blood glucose AUC at 100 mg/kg, po measured after 2 hrs by glucose challenge by OGTT relative to control
- Type: functional
- Design: scale not given: the % may be the effect or the level left

{"Smiles text": "CCc1cnc(N2CC=C(c3nc(COc4ccc(-n5cnnn5)cc4Cl)cs3)CC2)nc1", "Activity": "12.11%"}
{"Smiles text": "CCc1cnc(N2CCC(c3nc(COc4ccc(-n5cnnn5)cc4)cs3)CC2)nc1", "Activity": "29.22%"}
{"Smiles text": "CCc1cnc(N2CC=C(c3nc(COc4ccc(-n5cnnn5)cc4)cs3)CC2)nc1", "Activity": "35.05%"}
{"Smiles text": "CCc1cnc(N2CC=C(c3nc(COc4ccc(-n5cnnn5)cc4F)cs3)CC2)nc1", "Activity": "26.81%"}
